Data origin: patent US20230293517A1

# target-or-system: human Adenosine A1 receptor (Homo sapiens (Human))
# test-name: Adenosine receptor TR-FRET binding assay (A1)
# conditions-used: inhibition of binding of 100 nM CA200645, CHO cell membranes
Reported pKi is given for each of the following compounds.
When answering, recall that pKi equals minus log10 of the concentration in mol/L, and write that number alone.

Examples with answers:
{"compound": "Cc1cc(-c2sc(NC(=O)N3CCC(C#N)(CO)CC3)nc2-c2cccc(C#N)c2)cc(C)n1", "pKi": 7.27}
{"compound": "Cc1cc(-c2sc(NC(=O)N3CCC(F)(C#N)CC3)nc2-c2cccc(C#N)c2)cc(C)n1", "pKi": 8.22}

Ask | For human Adenosine A1 receptor (Homo sapiens (Human)), provide pKi of Cc1cc(-c2sc(NC(=O)N3CCOC[C@H]3CO)nc2-c2cccc(C#N)c2)cc(C)n1 please.
Reply | 7.19

Ask | How about Cc1cc(-c2sc(NC(=O)N3CC4(COC4)C3)nc2-c2cccc(C#N)c2)cc(CO)n1 ?
Reply | 7.33

* * *

Reported pKi is given for each of the following compounds.
# target-or-system: human Adenosine A1 receptor (Homo sapiens (Human), UniProt P30542)
# Sequence (P30542 whole entry): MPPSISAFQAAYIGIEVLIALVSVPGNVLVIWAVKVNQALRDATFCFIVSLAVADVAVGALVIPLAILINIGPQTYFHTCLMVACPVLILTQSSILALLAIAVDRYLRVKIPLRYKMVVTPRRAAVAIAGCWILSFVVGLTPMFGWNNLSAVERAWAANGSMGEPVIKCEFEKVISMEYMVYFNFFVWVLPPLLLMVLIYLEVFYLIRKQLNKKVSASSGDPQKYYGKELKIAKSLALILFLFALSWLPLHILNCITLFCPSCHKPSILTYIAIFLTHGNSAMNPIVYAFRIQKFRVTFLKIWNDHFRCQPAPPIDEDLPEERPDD
# test-name: Adenosine receptor TR-FRET binding assay (A1)
# conditions-used: inhibition of binding of 100 nM CA200645, CHO cell membranes
When answering, recall that pKi equals minus log10 of the concentration in mol/L, and write that number alone.

Examples with answers:
{"compound": "Cc1cc(-c2sc(NC(=O)N3CCC4(CCN(C)C4=O)CC3)nc2-c2cccc(C#N)c2)cc(C)n1 [Example 6.77]", "pKi": 6.88}
{"compound": "Cc1cc(-c2sc(NC(=O)N3CCC(C)(N)CC3)nc2-c2cccc(C#N)c2)cc(Cl)n1 [Example 5.9]", "pKi": 7.09}
{"compound": "Cc1cc(-c2sc(NC(=O)N3CCS(=O)(=O)CC3)nc2-c2cccc(C#N)c2)cc(C)n1 [Example 4.27]", "pKi": 8.22}
{"compound": "Cc1cc(-c2sc(NC(=O)N3CCN[C@@H](C(=O)O)C3)nc2-c2cccc(C#N)c2)cc(Cl)n1 [Example 5]", "pKi": 6.22}
{"compound": "Cc1cc(-c2sc(NC(=O)N3CCN[C@H](C)C3)nc2-c2cccc(C#N)c2)cc(Cl)n1 [Example 5.5]", "pKi": 6.94}

Ask | Fill in the blank: the reported pKi of Cc1cc(-c2sc(NC(=O)N3CCC(C)(C#N)C3)nc2-c2cccc(C#N)c2)cc(C2COC2)n1 (stereo not shown) [Example 6.110] is ____.
Reply | 7.89

Ask | How about Cc1cc(-c2sc(NC(=O)N3CCNC(C)(C)C3)nc2-c2cccc(C#N)c2)cc(C)n1 [Example 14.6] ?
Reply | 6.73

* * *

Reported pKi is given for each of the following molecules.
# target-or-system: human Adenosine A3 receptor (Homo sapiens (Human))
# Sequence (P0DMS8 whole entry): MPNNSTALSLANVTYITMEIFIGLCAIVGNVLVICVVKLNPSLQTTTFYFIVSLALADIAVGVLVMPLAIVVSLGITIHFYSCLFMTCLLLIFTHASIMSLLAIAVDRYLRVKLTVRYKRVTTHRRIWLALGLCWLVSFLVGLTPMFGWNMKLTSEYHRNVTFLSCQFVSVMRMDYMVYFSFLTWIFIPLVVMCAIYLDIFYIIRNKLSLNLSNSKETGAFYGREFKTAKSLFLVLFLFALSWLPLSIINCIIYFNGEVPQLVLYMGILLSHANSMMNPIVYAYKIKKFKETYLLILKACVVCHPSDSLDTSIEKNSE
When answering, recall that pKi equals minus log10 of the concentration in mol/L, and write that number alone.

Examples with answers:
{"compound": "Cc1cc(-c2sc(NC(=O)N3CCOC[C@H]3CO)nc2-c2cccc(C#N)c2)cc(C)n1", "target-or-system": "human Adenosine A3 receptor (Homo sapiens (Human))", "pKi": 6.41}
{"compound": "Cc1cc(-c2sc(NC(=O)N3CCOC[C@H]3C)nc2-c2cccc(C#N)c2)cc(C)n1", "target-or-system": "human Adenosine A3 receptor (Homo sapiens (Human))", "pKi": 6.66}
{"compound": "Cc1cc(-c2sc(NC(=O)N3CCNC[C@@H]3C)nc2-c2cccc(C#N)c2)cc(C)n1", "target-or-system": "human Adenosine A3 receptor (Homo sapiens (Human))", "pKi": 7.27}

Attention now shifts to the item below.
Ask | Fill in the blank: the reported pKi of Cc1cc(-c2sc(NC(=O)N3CC4CCC(C3)N4)nc2-c2cccc(C#N)c2)cc(C)n1 is ____.
Reply | 6.65
